System: female Musca domestica (WRL strain)
Experiment: Lethal activity against house flies (topical application, with and without piperonyl butoxide)
Type: in vivo
Details: with synergist 6 μg piperonyl butoxide per insect; mortality after 48 hrs
Method: The test compound was applied with the application of the synergist (6 μg piperonyl butoxide (PB) per insect). Mortality was assessed after 48 hrs.
// reported LD50 (synergised) per item
Give just the number in μg/fly; leave the unit off.

Consider the reported LD50 (synergised) for these compounds:
CC1(C)CC1NC(=O)/C=C/C=C/CCCCCCOCc1cc(C(F)(F)F)cc(C(F)(F)F)c1 (centres unmarked) [Example 109]    0.09
CC(NC(=O)/C=C/C=C/CCCCCCOCc1cc(C(F)(F)F)cc(C(F)(F)F)c1)C(C)(C)C (centres unmarked) [Example 108]    0.09

[ask] Field request: LD50 (synergised) | item: CC(C)CNC(=O)/C=C/C=C/CCCCOCc1cccc(C(F)(F)F)c1 [Example 2]
[reply] 0.2

[ask] Entry CC(C)CNC(=O)/C=C/C=C/CCCCCCOCc1cc(C(F)(F)F)cc(C(F)(F)F)c1 [Example 4] has what LD50 (synergised)?
[reply] 0.025
